method-summary: The drug is tested on Z-002 corresponding to rabbit gut metagenome with ENA study accession number: PRJEB37062 and ENA sample accession number: ERS12561802 for biotransformation under anaerobic condition. The drug concentrations were measured over 9 timepoints collected between 0 and 24 hours of incubation by liquid-chromatography-coupled mass spectrometry (LC–MS); also: call rule not given here
stated-conditions: 2 µM
observation-type: Bacterial Biotransformation

Use the examples below as a reference point.
Task: # Bacterial Biotransformation lookup, item COc1ccc2[nH]c([S+]([O-])Cc3ncc(C)c(OC)c3C)nc2c1 (stereo not drawn)
Result: Compound NOT metabolized

Task: Quick one: Bacterial Biotransformation for CN1C(=O)CC(C)(c2ccccc2)C1=O (stereo not drawn) [METHSUXIMIDE] ?
Result: Compound NOT metabolized

Task: Tell me the measured Bacterial Biotransformation of CN1C(=O)CCS(=O)(=O)C1c1ccc(Cl)cc1 (stereo not drawn) , please.
Result: Compound NOT metabolized

Task: Query (compound): Cc1ccc(S(=O)(=O)NC(=O)NN2CC3CCCC3C2)cc1 (stereo not drawn) [GLICLAZIDE] ; field requested: Bacterial Biotransformation
Result: Compound metabolized

Task: Name the reported Bacterial Biotransformation value associated with the compound `CCOC(=O)[C@H](CCc1ccccc1)N[C@@H](C)C(=O)N1[C@H](C(=O)O)C[C@@H]2CCC[C@@H]21`
Result: Compound metabolized

Task: Would you mind telling me what Bacterial Biotransformation value was observed for `CN/C(=N/CCSCc1nc[nH]c1C)NC#N` ?
Result: Compound NOT metabolized

Task: Look at this compound and give its reported Bacterial Biotransformation. CC(O)(CS(=O)(=O)c1ccc(F)cc1)C(=O)Nc1ccc(C#N)c(C(F)(F)F)c1 (stereo not drawn) [BICALUTAMIDE]
Result: Compound NOT metabolized

Now look at this one.
Task: I have this compound here, `COC(=O)[C@H]1[C@H]2C[C@@H]3c4[nH]c5cc(OC)ccc5c4CCN3C[C@H]2C[C@@H](OC(=O)c2cc(OC)c(OC)c(OC)c2)[C@@H]1OC` , and I need its recorded Bacterial Biotransformation.
Result: Compound NOT metabolized

----------
method-summary: The drug is tested on WLS-370 corresponding to human gut metagenome with ENA study accession number: PRJEB37062 and ENA sample accession number: ERS12561793 for biotransformation under anaerobic condition. The drug concentrations were measured over 9 timepoints collected between 0 and 24 hours of incubation by liquid-chromatography-coupled mass spectrometry (LC–MS)
stated-conditions: 2 µM
observation-type: Bacterial Biotransformation

Task: What does the record list as Bacterial Biotransformation for CC(C)NCC(O)c1ccc(NS(C)(=O)=O)cc1 (configuration not stated) ?
Result: Compound NOT metabolized

Task: Record request: Bacterial Biotransformation value, item CNS(=O)(=O)Cc1ccc2[nH]cc(CCN(C)C)c2c1.O=C(O)CCC(=O)O [SUMATRIPTAN SUCCINATE]
Result: Compound NOT metabolized

Task: # lookup: Bacterial Biotransformation of NS(=O)(=O)c1cc2c(cc1Cl)N=C(CSCc1ccccc1)NS2(=O)=O [BENZTHIAZIDE]
Result: Compound NOT metabolized

Task: Which value of Bacterial Biotransformation has been reported for `COC(=O)Nc1nc2ccc(C(=O)c3ccccc3)cc2[nH]1` in the records?
Result: Compound metabolized

Task: // returns reported Bacterial Biotransformation for input O=P(O)(O)O.c1ccc(CN(CC2=NCCN2)c2ccccc2)cc1 [ANTAZOLINE PHOSPHATE]
Result: Compound metabolized

Task: # Bacterial Biotransformation lookup, item `CC(C)(C#N)c1cc(Cn2cncn2)cc(C(C)(C)C#N)c1`
Result: Compound metabolized

Task: What value of Bacterial Biotransformation has been reported for the following compound? CS(=O)(=O)O.OC(CCN1CCCCC1)(c1ccccc1)c1ccccc1 [PRIDINOL METHANESULFONATE]
Result: Compound NOT metabolized

Task: Tell me the measured Bacterial Biotransformation of `NC12CC3CC(CC(C3)C1)C2` , please.
Result: Compound NOT metabolized

Next:
Task: Value lookup for Bacterial Biotransformation; key = `C=CCN1CC[C@]23c4c5ccc(O)c4O[C@H]2C(=O)CC[C@@]3(O)[C@H]1C5`
Result: Compound NOT metabolized

Task: If you can, please state the reported Bacterial Biotransformation value of COc1ccc2[nH]c([S+]([O-])Cc3ncc(C)c(OC)c3C)nc2c1 (configuration not stated) .
Result: Compound metabolized

Task: # lookup: Bacterial Biotransformation of `CC(=O)OCC(=O)[C@@]12N=C(C)O[C@@H]1C[C@H]1[C@@H]3CCC4=CC(=O)C=C[C@]4(C)[C@H]3[C@@H](O)C[C@@]12C`
Result: Compound metabolized

Task: Recorded Bacterial Biotransformation of `CC(C)c1c(C(=O)Nc2ccccc2)c(-c2ccccc2)c(-c2ccc(F)cc2)n1CC[C@@H](O)C[C@@H](O)CC(=O)O` , please.
Result: Compound metabolized

Task: What value of Bacterial Biotransformation has been recorded for this entry: CC(=O)OCC(=O)[C@@]1(O)[C@@H](C)C[C@H]2[C@@H]3CCC4=CC(=O)C=C[C@]4(C)[C@@]3(F)[C@@H](O)C[C@@]21C [BETAMETHASONE ACETATE]
Result: Compound metabolized

Task: # Bacterial Biotransformation lookup, item `COc1c2occc2cc2ccc(=O)oc12`
Result: Compound metabolized

Task: For the compound `CCOC(=O)[C@H](CCc1ccccc1)N[C@@H](C)C(=O)N1[C@H](C(=O)O)C[C@@H]2CCC[C@@H]21` , what Bacterial Biotransformation is on record?
Result: Compound metabolized

Task: Consider the compound O=C(NCc1ccccc1)OCCO [BURAMATE] and give its measured Bacterial Biotransformation.
Result: Compound NOT metabolized

Task: Give its Bacterial Biotransformation value. Item: `CCOC(=O)[C@H](CCc1ccccc1)N[C@H]1CCc2ccccc2N(CC(=O)O)C1=O`
Result: Compound metabolized

----------
stated-conditions: human gut metagenome, 24 h, 2 µM
observation-type: Bacterial Biotransformation

Examples with answers:
Task: Bench note: what Bacterial Biotransformation did CCN(CC)C(C)CN1c2ccccc2Sc2ccccc21 (stereo not given) show?
Result: Compound metabolized

Task: # Bacterial Biotransformation lookup, item COc1c(C)c2c(c(O)c1C/C=C(\C)CCC(=O)OCCN1CCOCC1)C(=O)OC2 [MYCOPHENOLATE MOFETIL]
Result: Compound metabolized

Task: # get_value(readout='Bacterial Biotransformation', item= `OCCOCCN1CCN(C2=Nc3ccccc3Sc3ccccc32)CC1` )
Result: Compound metabolized

Task: Consider the compound shown here: C=CCc1ccccc1OCC(O)CNC(C)C (stereo not given) What is its recorded Bacterial Biotransformation?
Result: Compound NOT metabolized

Task: Which Bacterial Biotransformation value belongs to `CC(C)c1nc(CN(C)C(=O)N[C@H](C(=O)N[C@@H](Cc2ccccc2)C[C@H](O)[C@H](Cc2ccccc2)NC(=O)OCc2cncs2)C(C)C)cs1` ?
Result: Compound metabolized

Next:
Task: Quick one: Bacterial Biotransformation for `COC(=O)[C@H]1[C@H]2C[C@@H]3c4[nH]c5cc(OC)ccc5c4CCN3C[C@H]2C[C@@H](OC(=O)c2cc(OC)c(OC)c(OC)c2)[C@@H]1OC` ?
Result: Compound metabolized

Task: Please give the measured Bacterial Biotransformation for this compound: `CN1CCc2c(c3ccccc3n2Cc2ccccc2)C1.CN1CCc2c(c3ccccc3n2Cc2ccccc2)C1.O=S(=O)(O)c1cccc2c(S(=O)(=O)O)cccc12`
Result: Compound NOT metabolized

Task: // query Bacterial Biotransformation value for entry `O=c1n(CCCN2CCN(c3cccc(Cl)c3)CC2)nc2ccccn12`
Result: Compound metabolized

Task: Dear colleague, I am looking for the recorded Bacterial Biotransformation of the following compound: `Clc1ccc(Cn2c(CN3CCCC3)nc3ccccc32)cc1`
Result: Compound metabolized

Task: Name the recorded Bacterial Biotransformation for `CNC(=C[N+](=O)[O-])NCCSCc1ccc(CN(C)C)o1` .
Result: Compound metabolized

Task: Can you share its Bacterial Biotransformation? I mean this compound: O=C(O)COCCN1CCN(C(c2ccccc2)c2ccc(Cl)cc2)CC1 (stereo not given)
Result: Compound metabolized

Task: Can you look up the measured Bacterial Biotransformation of CN1C(=O)CCS(=O)(=O)C1c1ccc(Cl)cc1 (stereo not given) for me?
Result: Compound NOT metabolized

Task: What measured Bacterial Biotransformation goes with `CCCCCOC(=O)Nc1nc(=O)n([C@@H]2O[C@H](C)[C@@H](O)[C@H]2O)cc1F` ?
Result: Compound metabolized

Task: If you can, please state the reported Bacterial Biotransformation value of `COc1cc2c(c(OC)c1OC)-c1ccc(OC)c(=O)cc1[C@@H](NC(C)=O)CC2` .
Result: Compound metabolized

Task: Value lookup for Bacterial Biotransformation; key = CCN(CC)CC#CCOC(=O)C(O)(c1ccccc1)C1CCCCC1.Cl (stereo not given) [OXYBUTYNIN CHLORIDE]
Result: Compound metabolized

Task: What Bacterial Biotransformation value was documented for this compound, O=C(NCc1ccccc1)OCCO [BURAMATE] ?
Result: Compound NOT metabolized

Task: What does the record list as Bacterial Biotransformation for CC(=O)O[C@]1(C(C)=O)CC[C@H]2[C@@H]3C=C(Cl)C4=CC(=O)[C@@H]5C[C@@H]5[C@]4(C)[C@H]3CC[C@@]21C [CYPROTERONE ACETATE] ?
Result: Compound metabolized

Task: // query Bacterial Biotransformation value for entry `c1ccc([C@H]2CN3CCSC3=N2)cc1`
Result: Compound metabolized

Task: Which Bacterial Biotransformation is reported for this compound? CN(C)CCc1c[nH]c2ccc(Cn3cncn3)cc12.O=C(O)c1ccccc1 [RIZATRIPTAN BENZOATE]
Result: Compound NOT metabolized

Task: Report Bacterial Biotransformation for `N#Cc1ccc(C(c2ccc(C#N)cc2)n2cncn2)cc1` please.
Result: Compound NOT metabolized

Hey, just so you know, these numbers are from ChEMBL document CHEMBL5724914.
